- protocol conditions: 343.2 K; Liquid; Gas Saturation Method
Counter-ions that a name gives are not always drawn.
Rule: vapor or sublimation pressure below 0.04 kPa gives label 1, anything at or above gives label 0.

Reference set (3 entries):
1) CCCCOC(=O)C(=O)OCCCC [di-n-butyl oxalate] = label 0
2) CCOC(=O)CCCC(=O)OCC [diethyl glutarate] = label 0
3) CCCCOC(=O)CCC(=O)OCCCC = label 1

Query: I'd appreciate it if you could check whether CCOC(=O)CCCCC(=O)OCC [diethyl hexanedioate] has vapor or sublimation pressure smaller than 0.04 kPa.
Reply: label 0

----------
- protocol conditions: 328.2 K; Liquid; Gas Saturation Method
Structures can show the parent of a compound that is named as a salt.
readout: vapor or sublimation pressure (kPa)
Field format: number, assumed kPa, no unit text.

Please review the entries below; each comes with its answer.
1) CCOC(=O)CCCCC(=O)OCC [diethyl hexanedioate] = 0.0185
2) CCCCOC(=O)CCC(=O)OCCCC = 0.00489
3) CCCCOC(=O)C(=O)OCCCC [di-n-butyl oxalate] = 0.0223
4) CCOC(=O)CCCC(=O)OCC [diethyl glutarate] = 0.0405
5) CCCCOC(=O)CCCCC(=O)OCCCC [dibutyl hexanedioate] = 0.00079

Okay, now this compound:
Query: Recorded vapor or sublimation pressure of CCCCOC(=O)CC(=O)OCCCC [dibutyl 1,3-propanedioate] , please.
Reply: 0.0131
